- Experimental system: EGFR (form in the assay not stated) (human, UniProt P00533 25-645, limits assumed)
- Experiment notes: ELISA, NEM conjugate 500 nM
Observed property: binding ratio vs parent P54AR4-83v2 (ratio)
Entry rule: numbers only, all in ratio.

P54AR4-83v2 V46C, NEM conjugate (designed binder, NEM on Cys 46, His-tagged) LPAPKNLVVSEVTEDSARLSWDDPWAFYESFLIQYQESEKVGEAICLTVPGSERSYDLTGLKPGTEYTVSIYGVHNVYKDTNMRGLPLSAIFTT; 0.9

Shifting focus to the binder that follows.
## Input Fill in: binding ratio vs parent P54AR4-83v2 of P54AR4-83v2 H75C, NEM conjugate (designed binder, NEM on Cys 75, His-tagged) LPAPKNLVVSEVTEDSARLSWDDPWAFYESFLIQYQESEKVGEAIVLTVPGSERSYDLTGLKPGTEYTVSIYGVCNVYKDTNMRGLPLSAIFTT is ___
## Output 0.25
